System: CP247
Assay: qHTS profiling for inhibitors of Plasmodium falciparum proliferation (AID 504749); note: nearly all actives have a fitted effect of over 60% in size
Conditions: P. falciparum in erythrocytes, SYBR Green DNA, 72 h; series mostly up to 28.7 µM
Records with an inconclusive call do not appear. Active and inactive are the calls of the source. Calls come from the whole dose curve; as a rule, active = well fitted inhibition curve with a large enough effect; inconclusive = small, poorly fitted or top-dose-only effect; inactive = flat fitted curve, though single readings scatter.
QUANTITY_MEASURED: outcome

Guide cases for outcome, answers given:
MOLECULE	EXPERIMENTAL_TARGET	outcome
CC(C)(C)CC(C)(C)c1cc(Cc2cc(C(C)(C)CC(C)(C)C)cc(-n3nc4ccccc4n3)c2O)c(O)c(-n2nc3ccccc3n2)c1	CP247	inactive
[O-][N+](=Nc1ccccc1)c1ccccc1	CP247	inactive
CN(CCO)CC(O)Cn1cnc2c1c(=O)n(C)c(=O)n2C (stereo unspecified) (tested in a mixture with another compound)	CP247	inactive
CCCC(=O)O	CP247	inactive
CCCCC(CC)COS(=O)(=O)O (stereo unspecified)	CP247	inactive
CC(CC=O)CCCC(C)(C)O (stereo unspecified)	CP247	inactive
CCOc1ccc(S(=O)(=O)O)c2cccnc12	CP247	inactive
CC(C)(CO)[C@@H](O)C(=O)NCCC(=O)NCCSSCCNC(=O)CCNC(=O)[C@H](O)C(C)(C)CO	CP247	inactive

Consider now this further molecule.
*Q* Fill in the blank: the reported outcome of O=C1c2ccccc2C(=O)c2c1ccc(O)c2O is ____.
*A* inactive

###

System: DIV14
Test: qHTS profiling for inhibitors of Plasmodium falciparum proliferation (AID 504749); note: nearly all actives have a fitted effect of over 60% in size
Details: P. falciparum in erythrocytes, SYBR Green DNA, 72 h; series mostly up to 28.7 µM
Results filed as inconclusive are left out. The source made the active and inactive calls. Calls come from the whole dose curve; as a rule, active = well fitted inhibition curve with a large enough effect; inconclusive = small, poorly fitted or top-dose-only effect; inactive = flat fitted curve, though single readings scatter.
QUANTITY_MEASURED: outcome

Guide cases for outcome, answers given:
SMILES	EXPERIMENTAL_TARGET	QUANTITY_MEASURED	RESULT
COC1=C(OC)C(=O)C(C/C=C(\C)CC/C=C(\C)CC/C=C(\C)CC/C=C(\C)CC/C=C(\C)CC/C=C(\C)CC/C=C(\C)CC/C=C(\C)CC/C=C(\C)CCC=C(C)C)=C(C)C1=O	DIV14	outcome	inactive
COc1ccc(/C=N/NC(=O)c2ccncc2)c(C(=O)O)c1OC	DIV14	outcome	inactive
OC[C@H]1O[C@@H]2O[C@H]3[C@H](O)[C@@H](O)[C@@H](O[C@H]4[C@H](O)[C@@H](O)[C@@H](O[C@H]5[C@H](O)[C@@H](O)[C@@H](O[C@H]6[C@H](O)[C@@H](O)[C@@H](O[C@H]7[C@H](O)[C@@H](O)[C@@H](O[C@H]1[C@H](O)[C@H]2O)O[C@@H]7CO)O[C@@H]6CO)O[C@@H]5CO)O[C@@H]4CO)O[C@@H]3CO	DIV14	outcome	inactive
CCOc1ccc(NC(=S)Nc2ccc(OCC)cc2)cc1	DIV14	outcome	inactive

Consider now this further compound.
*Q* GET /values?readout=outcome&system=DIV14&item= CN(Cc1ccccc1)Cc1ccccc1
*A* inactive

###

Tested on: P94_40
Assay: qHTS profiling for inhibitors of Plasmodium falciparum proliferation (AID 504749); note: nearly all actives have a fitted effect of over 60% in size
Settings: P. falciparum in erythrocytes, SYBR Green DNA, 72 h; series mostly up to 28.7 µM
Records with an inconclusive call do not appear. Active and inactive are the calls of the source. Calls follow the shape of the dose curve; as a rule, active = well fitted inhibition curve with a large enough effect; inconclusive = small, poorly fitted or top-dose-only effect; inactive = flat fitted curve, though single readings scatter.
Give one outcome, nothing more. List: active, inactive

A selection of reference data follows.
In [3]: df
Out[3]:
                                   molecule  category
0                O=C(Nc1ccc(O)cc1)c1ccccc1O  inactive
1                           OC/C=C/c1ccccc1  inactive
2  CCCc1nc(C(C)(C)O)c(C(=O)OCc2oc(=O)oc2C)n1Cc1ccc(-c2ccccc2-c2nn[nH]n2)cc1  inactive
3               Cc1ncc(COP(=O)(O)O)c(CN)c1O  inactive
4  C=CCN1CCCC1CNC(=O)c1cc(S(N)(=O)=O)cc(OC)c1OC (stereo unspecified)  inactive
5  CC1CCCCN1CCCOC(=O)c1ccccc1 (stereo unspecified)  inactive
6                               Cc1ncc[nH]1  inactive
7  FC(F)(F)C(F)(F)C(F)(F)C(F)(F)C(F)(F)C(F)(F)F  inactive

*Q* In this assay, the call recorded for CC1(C)S[C@@H]2[C@H](NC(=O)C3(N)CCCCC3)C(=O)N2[C@H]1C(=O)O was what?
*A* inactive

*Q* In this assay, the call recorded for Cc1ncc(C[n+]2csc(CCO)c2C)c(N)n1 was what?
*A* inactive

*Q* In this assay, the call recorded for O=C1[O][Bi][O]c2ccccc21 was what?
*A* inactive

###

Test system: CP247
Test: qHTS profiling for inhibitors of Plasmodium falciparum proliferation (AID 504749); note: nearly all actives have a fitted effect of over 60% in size; note: potency is the fitted concentration of half-maximal effect
Conditions: P. falciparum in erythrocytes, SYBR Green DNA, 72 h; series mostly up to 28.7 µM
Records with an inconclusive call do not appear. The source made the active and inactive calls. The call rests on the fitted dose curve; in most records, active means well fitted inhibition curve with a large enough effect; inconclusive means small, poorly fitted or top-dose-only effect; inactive means flat fitted curve, though single readings scatter.
QUANTITY_MEASURED: Potency

Guide cases for Potency, answers given:
COMPOUND	QUANTITY_MEASURED	RESULT
CCN(CC)CCOc1ccccc1OC	Potency	inactive
NC(=O)CC[C@@H]1NC(=O)[C@H](Cc2ccccc2)NC(=O)[C@H](Cc2ccc(O)cc2)NC(=O)[C@@H](N)CSSC[C@@H](C(=O)N2CCC[C@H]2C(=O)N[C@@H](CCCN=C(N)N)C(=O)NCC(N)=O)NC(=O)[C@H](CC(N)=O)NC1=O	Potency	inactive
CC1CCC(NC(=O)N(CCCl)N=O)CC1 (centres undefined)	Potency	inactive
C=C1C(CCl)(CCl)C2(Cl)C(Cl)C(Cl)C1(Cl)C2(Cl)Cl (centres undefined)	Potency	3.16 µM (active)
CC(C)CCC[C@@H](C)[C@H]1CC[C@H]2[C@@H]3CC[C@@H]4C[C@H](O)CC[C@]4(C)[C@H]3CC[C@]12C	Potency	inactive
COc1ccc(C(=O)c2ccc(C)cc2)c(O)c1	Potency	inactive
CC(C)c1nc(N(C)S(C)(=O)=O)nc(-c2ccc(F)cc2)c1/C=C/C(O)CC(O)CC(=O)O (centres undefined)	Potency	inactive
NC(=S)N=Nc1ccc(NN=C(N)N)cc1	Potency	11.2 µM (active)

*Q* Fill in the blank: the reported Potency of O=C(O)COc1ccccc1/C=N/NC(=O)c1ccncc1 is ____.
*A* inactive

###

Tested on: PC26
Test: qHTS profiling for inhibitors of Plasmodium falciparum proliferation (AID 504749); note: nearly all actives have a fitted effect of over 60% in size
Settings: P. falciparum in erythrocytes, SYBR Green DNA, 72 h; series mostly up to 28.7 µM
Records with an inconclusive call do not appear. Activity calls are given as the source filed them. The call rests on the fitted dose curve; in most records, active means well fitted inhibition curve with a large enough effect; inconclusive means small, poorly fitted or top-dose-only effect; inactive means flat fitted curve, though single readings scatter.
Give one outcome, nothing more. List: 1 for active, 0 for inactive

A selection of reference data follows.
MOLECULE	EXPERIMENTAL_TARGET	CATEGORY
CC(CNC(=O)c1cccnc1)NC(=O)c1cccnc1 (stereo unspecified)	PC26	0
CS(=O)(=O)c1ccc([C@@H](O)[C@@H](COC(=O)CN)NC(=O)C(Cl)Cl)cc1	PC26	0
C/C=C/C=C/C(=O)O	PC26	0

*Q* In this assay, the call recorded for CCCCC(CC)COS(=O)(=O)O (stereo unspecified) was what?
*A* 0

*Q* In this assay, the call recorded for CCCCC[C@H](O)/C=C/[C@@H]1[C@H]2C/C(=C/CCCC(=O)O)O[C@H]2C[C@H]1O was what?
*A* 0

*Q* In this assay, the call recorded for CCCCC[C@H](O)/C=C/[C@H]1[C@H](O)CC(=O)[C@@H]1C/C=C\CCCC(=O)O was what?
*A* 0

*Q* In this assay, the call recorded for Cc1nc(NS(=O)(=O)c2ccc(N)cc2)nc(C)c1Br was what?
*A* 0

*Q* In this assay, the call recorded for CC(=O)N[C@@H]1C(O[C@H]2O[C@H](C(=O)O)C(O)[C@H](O)[C@H]2O)[C@H](O)[C@@H](CO)O[C@H]1O[C@@H]1C(C(=O)O)O[C@@H](O[C@H]2[C@H](O)[C@@H](CO)OC(O)[C@@H]2NC(C)=O)[C@H](O)[C@H]1O (stereo partly specified) was what?
*A* 0

*Q* In this assay, the call recorded for S=C1SCN(Cc2ccccc2)CN1Cc1ccccc1 was what?
*A* 0

*Q* In this assay, the call recorded for CCCCCCCCCCCCCC(=O)OCC(COP(=O)([O-])OCC[N+](C)(C)C)OC(=O)CCCCCCCCCCCCC (stereo unspecified) was what?
*A* 0

*Q* In this assay, the call recorded for NCC[C@H](O)C(=O)N[C@@H]1C[C@H](N)[C@@H](O[C@H]2O[C@H](CN)CC[C@H]2N)[C@H](O)[C@H]1O[C@H]1O[C@H](CO)[C@@H](O)[C@H](N)[C@H]1O was what?
*A* 0

*Q* In this assay, the call recorded for FC(F)(F)C(F)(F)C(F)(F)C(F)(F)C(F)(F)F was what?
*A* 0

*Q* In this assay, the call recorded for CCOc1ccc(NC(=S)Nc2ccc(OCC)cc2)cc1 was what?
*A* 0

*Q* In this assay, the call recorded for Oc1cc(O)cc(O)c1 was what?
*A* 0

*Q* In this assay, the call recorded for CC(C)(C)c1ccc2c(S(=O)(=O)O)c(C(C)(C)C)ccc2c1 was what?
*A* 0

*Q* In this assay, the call recorded for C(=C\c1ccncc1)/c1ccccc1 was what?
*A* 0

*Q* In this assay, the call recorded for FC(F)(F)C(F)(F)C(F)(F)C(F)(F)C(F)(F)C(F)(F)F was what?
*A* 0

*Q* In this assay, the call recorded for CC(C)CCC[C@@H](C)[C@H]1CC[C@H]2[C@@H]3CC[C@@H]4C[C@H](O)CC[C@]4(C)[C@H]3CC[C@]12C was what?
*A* 0

*Q* In this assay, the call recorded for CC(O)CN(C)C (stereo unspecified) was what?
*A* 0

*Q* In this assay, the call recorded for O=C1[O][Bi][O]c2ccccc21 was what?
*A* 0

*Q* In this assay, the call recorded for Cc1ccccn1 was what?
*A* 0

*Q* In this assay, the call recorded for COC(=O)CCC[N+](C)(C)C was what?
*A* 0
